// reported DC50 per item
Molecular target: GSPT1 (Homo sapiens, UniProt P15170+Q96SW2)
Sequence (P15170 whole entry): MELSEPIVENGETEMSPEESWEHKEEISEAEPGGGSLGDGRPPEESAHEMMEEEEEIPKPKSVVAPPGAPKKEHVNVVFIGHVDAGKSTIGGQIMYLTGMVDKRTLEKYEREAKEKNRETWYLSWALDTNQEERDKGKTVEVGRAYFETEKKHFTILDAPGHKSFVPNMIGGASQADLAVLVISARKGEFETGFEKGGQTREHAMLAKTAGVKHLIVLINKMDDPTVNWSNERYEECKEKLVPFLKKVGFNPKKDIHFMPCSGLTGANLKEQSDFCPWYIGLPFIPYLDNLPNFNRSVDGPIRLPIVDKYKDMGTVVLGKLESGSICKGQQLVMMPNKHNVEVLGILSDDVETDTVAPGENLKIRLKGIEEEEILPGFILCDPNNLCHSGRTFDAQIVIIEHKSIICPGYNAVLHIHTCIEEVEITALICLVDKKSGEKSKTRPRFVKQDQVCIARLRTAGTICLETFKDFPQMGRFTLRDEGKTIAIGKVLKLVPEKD
Sequence (Q96SW2 whole entry): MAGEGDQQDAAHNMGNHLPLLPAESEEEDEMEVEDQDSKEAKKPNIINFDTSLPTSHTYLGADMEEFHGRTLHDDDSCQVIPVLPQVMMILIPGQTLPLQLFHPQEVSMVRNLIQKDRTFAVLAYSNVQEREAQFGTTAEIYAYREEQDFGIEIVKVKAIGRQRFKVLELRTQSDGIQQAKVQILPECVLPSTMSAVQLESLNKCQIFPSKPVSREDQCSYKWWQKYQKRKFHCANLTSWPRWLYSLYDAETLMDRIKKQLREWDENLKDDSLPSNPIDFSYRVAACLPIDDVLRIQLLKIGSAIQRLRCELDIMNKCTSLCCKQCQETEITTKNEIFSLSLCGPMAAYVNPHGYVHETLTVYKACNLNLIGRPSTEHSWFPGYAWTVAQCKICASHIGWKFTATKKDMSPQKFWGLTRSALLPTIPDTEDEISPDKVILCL
Sequence (Q16531 whole entry partner): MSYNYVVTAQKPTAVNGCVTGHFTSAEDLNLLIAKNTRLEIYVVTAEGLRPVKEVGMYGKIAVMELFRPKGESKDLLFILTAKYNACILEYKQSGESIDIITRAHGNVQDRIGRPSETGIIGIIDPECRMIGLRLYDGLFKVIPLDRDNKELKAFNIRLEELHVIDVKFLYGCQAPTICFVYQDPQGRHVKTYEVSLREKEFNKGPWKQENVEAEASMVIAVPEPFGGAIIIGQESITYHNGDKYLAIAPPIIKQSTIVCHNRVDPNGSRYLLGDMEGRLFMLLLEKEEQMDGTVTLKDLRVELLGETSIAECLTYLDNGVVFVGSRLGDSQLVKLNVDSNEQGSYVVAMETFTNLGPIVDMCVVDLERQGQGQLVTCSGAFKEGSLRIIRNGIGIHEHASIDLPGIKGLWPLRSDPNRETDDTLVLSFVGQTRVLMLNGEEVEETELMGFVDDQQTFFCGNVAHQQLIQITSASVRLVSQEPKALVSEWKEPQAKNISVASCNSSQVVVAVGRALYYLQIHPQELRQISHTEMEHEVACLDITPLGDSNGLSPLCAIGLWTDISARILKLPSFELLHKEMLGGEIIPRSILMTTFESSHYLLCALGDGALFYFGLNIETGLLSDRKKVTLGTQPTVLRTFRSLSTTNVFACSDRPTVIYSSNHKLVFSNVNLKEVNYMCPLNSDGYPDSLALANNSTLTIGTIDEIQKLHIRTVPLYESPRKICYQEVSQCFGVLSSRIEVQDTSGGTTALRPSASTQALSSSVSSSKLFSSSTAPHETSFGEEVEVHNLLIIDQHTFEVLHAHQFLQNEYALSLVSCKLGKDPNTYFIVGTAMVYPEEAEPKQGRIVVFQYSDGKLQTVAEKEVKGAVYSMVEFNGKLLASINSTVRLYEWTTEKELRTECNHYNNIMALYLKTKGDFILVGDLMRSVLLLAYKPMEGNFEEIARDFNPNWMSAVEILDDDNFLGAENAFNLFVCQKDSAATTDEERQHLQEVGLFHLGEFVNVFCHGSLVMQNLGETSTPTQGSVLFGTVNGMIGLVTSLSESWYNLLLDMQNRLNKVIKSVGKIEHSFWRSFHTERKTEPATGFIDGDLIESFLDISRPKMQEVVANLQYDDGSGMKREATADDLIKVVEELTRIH
Assay: HiBiT degradation assay, GSPT1, Procedure A
Type: cell-based
Design: HiBit-GSPT1 KI HEK293(LgBit) Cells; host or cells: HEK293(LgBit) knock-in cells
Settings: six hours

Below: 2 compounds and their reported DC50.
{"COMPOUND": "O=C1CCC(N2Cc3cc(-c4cn(C5CC5)c(-c5ccccc5)n4)ccc3C2=O)C(=O)N1 (stereo not drawn) [Example 704]", "QUANTITY_NAME": "DC50", "REPORTED": "≥ 25 nM"}
{"COMPOUND": "Cn1cnc(-c2ccc3c(c2)CN(C2CCC(=O)NC2=O)C3=O)c1-c1cc[nH]n1 (stereo not drawn) [Example 504]", "QUANTITY_NAME": "DC50", "REPORTED": "≥ 25 nM"}

Next up:
Tell me the measured DC50 of [2H]C([2H])([2H])n1ncc(-c2ccc3c(c2)CN(C2CCC(=O)NC2=O)C3=O)c1-c1ccc(OC)cc1Cl (stereo not drawn) [Example 434] , please.
≥ 25 nM
